src = PubChem BioAssay (EPA / NIEHS)

# target: Heat shock factor protein 1 (Homo sapiens) (UniProt Q00613)
# Sequence (Q00613 whole entry, looked up): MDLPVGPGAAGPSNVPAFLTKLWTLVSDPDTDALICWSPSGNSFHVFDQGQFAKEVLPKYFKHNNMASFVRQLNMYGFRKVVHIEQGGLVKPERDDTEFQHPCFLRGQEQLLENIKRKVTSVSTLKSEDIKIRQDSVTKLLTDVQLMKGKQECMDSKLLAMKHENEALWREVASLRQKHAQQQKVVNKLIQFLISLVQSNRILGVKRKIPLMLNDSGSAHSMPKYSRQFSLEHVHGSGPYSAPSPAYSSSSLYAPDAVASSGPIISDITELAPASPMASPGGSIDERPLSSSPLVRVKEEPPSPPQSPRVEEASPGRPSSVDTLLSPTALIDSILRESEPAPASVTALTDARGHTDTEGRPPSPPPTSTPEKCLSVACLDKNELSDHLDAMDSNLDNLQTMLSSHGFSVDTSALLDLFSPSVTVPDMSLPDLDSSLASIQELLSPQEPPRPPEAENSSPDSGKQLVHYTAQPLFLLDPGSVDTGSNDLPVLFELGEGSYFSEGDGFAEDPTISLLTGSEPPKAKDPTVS
# protocol-details: ATG_HSE_CIS: Attagene CIS-FACTORIAL HepG2 Assay for human Heat Shock Transcription Factor 1 (HSE) (AID 2282953)
# stated-conditions: HepG2 HSE cis-reporter, Attagene RNA transcription; actives raise or lower the signal
Calls of active or inactive are those of the source. The calls were made as follows: active = hit-call score of the fitted dose curve at least 0.9, where 1 is the maximum; inactive = score below 0.9.
Your answer must be one of the following: 1 for active, -1 for inactive

Below are worked cases with known answers.
- smiles-repr: "C=CCN=C=S"
  target: "Heat shock factor protein 1 (Homo sapiens) (UniProt Q00613)"
  assigned-label: -1
- smiles-repr: "CN(C)c1ccc(N=O)cc1"
  target: "Heat shock factor protein 1 (Homo sapiens) (UniProt Q00613)"
  assigned-label: 1

Pending compound:
Incoming: GET /call?item= COP(=S)(OC)Oc1cc(Cl)c(I)cc1Cl returns the recorded outcome of this test.
Outgoing: 1

---

# Read-out: Monocyte Chemoattractant Protein-1 (MCP1), CCL2 (gene 6347)
# protocol-details: BSK_SAg_MCP1: BioMAP Diversity Plus: SAg Assay for Monocyte Chemoattractant Protein-1 (MCP1) Biomarker Activity (AID 2283090)
# stated-conditions: primary human HUVEC with PBMC; actives raise or lower the signal
Calls of active or inactive are those of the source. The calls were made as follows: active = hit-call score of the fitted dose curve at least 0.9, where 1 is the maximum; inactive = score below 0.9.
Hi! Could you answer with just one of these? Yes (active), No (inactive)

Consider the worked cases shown below.
- compound: "O=C(O)C1(c2ccc3c(c2)OC[C@H](Cc2ccc(-c4ccccc4)cc2)[C@H]3O)CCCC1"
  assigned-label: "Yes"
- compound: "CN(C)C(=S)S"
  assigned-label: "No"
- compound: "CCCCN(CCCC)C(=S)[S-].CCCCN(CCCC)C(=S)[S-].[Ni+2]"
  assigned-label: "No"
- compound: "Cc1cc(Cl)ccc1OC(C)C(=O)O (configuration not stated)"
  assigned-label: "No"
- compound: "Clc1cccc(Cl)c1"
  assigned-label: "No"

Incoming: Identify the outcome logged in this assay for the compound shown: Oc1c(Cl)cc(Cl)cc1Cl
Outgoing: No

Incoming: Field entry: NC(=O)CCl
Outgoing: No

---

# protocol-details: ATG_VDRE_CIS: Attagene CIS-FACTORIAL HepG2 Assay for human Vitamin D Receptor Element (VDRE) (AID 2282968)
# stated-conditions: HepG2 VDRE cis-reporter transcription, actives raise or lower the signal
Calls of active or inactive are those of the source. Rule for the calls: active = hit-call score of the fitted dose curve at least 0.9, where 1 is the maximum; inactive = score below 0.9.
Use one of these outcomes when replying: t (active), f (inactive)

Solved cases below.
- compound: "CNC(=O)N(C)c1nc2ccccc2s1"
  assigned-label: "f"
- compound: "C[C@H]1C(=O)O[C@@H]2CCN3CC=C(COC(=O)[C@](C)(O)[C@]1(C)O)[C@H]23"
  assigned-label: "f"
- compound: "Cc1cc(SCc2sc(-c3ccc(C(F)(F)F)c(F)c3)nc2C)ccc1OCC(=O)O"
  assigned-label: "t"

Incoming: Given C[N+](C)(C)Cc1ccccc1 , state the outcome it received in this test.
Outgoing: f

Incoming: Thanks! And Nc1ccc(-c2ccccc2)cc1 ?
Outgoing: f

Incoming: And then CCCCCCCCBr , what is it?
Outgoing: f

Incoming: // repeat for O=S1(=O)OC(c2cc(Br)c(O)c(Br)c2)(c2cc(Br)c(O)c(Br)c2)c2ccccc21 and report
Outgoing: f

Incoming: Request: O=C=Nc1ccc(Cl)cc1
Outgoing: f

Incoming: Follow-up item: O=S1OC[C@@H]2[C@H](CO1)[C@]1(Cl)C(Cl)=C(Cl)[C@@]2(Cl)C1(Cl)Cl (some centres undefined)
Outgoing: t

Incoming: Param item: O=C(NC(=O)c1c(F)cccc1F)Nc1ccc(Cl)cc1
Outgoing: f

Incoming: How about CC(C)(c1ccc(O)c(-c2ccccc2)c1)c1ccc(O)c(-c2ccccc2)c1 ?
Outgoing: t

Incoming: What about NNCCO ?
Outgoing: f

Incoming: One more compound: O=[N+]([O-])c1ccc(Nc2ccccc2)cc1
Outgoing: t

Incoming: Item: CC(C)(C#N)N=NC(C)(C)C#N
Outgoing: f

Incoming: Do the same for Cc1cc(-c2cc(C)c(N)c(C)c2)cc(C)c1N please
Outgoing: f

Incoming: Here is the next compound: COC(=O)c1cc(Oc2ccc(Cl)cc2Cl)ccc1[N+](=O)[O-]
Outgoing: t

Incoming: Please give the result for Cc1ccc(CCl)cc1 too.
Outgoing: f
